target or system: TAOK1 (Homo sapiens, UniProt Q7L7X3)
Sequence (Q7L7X3 1-1001): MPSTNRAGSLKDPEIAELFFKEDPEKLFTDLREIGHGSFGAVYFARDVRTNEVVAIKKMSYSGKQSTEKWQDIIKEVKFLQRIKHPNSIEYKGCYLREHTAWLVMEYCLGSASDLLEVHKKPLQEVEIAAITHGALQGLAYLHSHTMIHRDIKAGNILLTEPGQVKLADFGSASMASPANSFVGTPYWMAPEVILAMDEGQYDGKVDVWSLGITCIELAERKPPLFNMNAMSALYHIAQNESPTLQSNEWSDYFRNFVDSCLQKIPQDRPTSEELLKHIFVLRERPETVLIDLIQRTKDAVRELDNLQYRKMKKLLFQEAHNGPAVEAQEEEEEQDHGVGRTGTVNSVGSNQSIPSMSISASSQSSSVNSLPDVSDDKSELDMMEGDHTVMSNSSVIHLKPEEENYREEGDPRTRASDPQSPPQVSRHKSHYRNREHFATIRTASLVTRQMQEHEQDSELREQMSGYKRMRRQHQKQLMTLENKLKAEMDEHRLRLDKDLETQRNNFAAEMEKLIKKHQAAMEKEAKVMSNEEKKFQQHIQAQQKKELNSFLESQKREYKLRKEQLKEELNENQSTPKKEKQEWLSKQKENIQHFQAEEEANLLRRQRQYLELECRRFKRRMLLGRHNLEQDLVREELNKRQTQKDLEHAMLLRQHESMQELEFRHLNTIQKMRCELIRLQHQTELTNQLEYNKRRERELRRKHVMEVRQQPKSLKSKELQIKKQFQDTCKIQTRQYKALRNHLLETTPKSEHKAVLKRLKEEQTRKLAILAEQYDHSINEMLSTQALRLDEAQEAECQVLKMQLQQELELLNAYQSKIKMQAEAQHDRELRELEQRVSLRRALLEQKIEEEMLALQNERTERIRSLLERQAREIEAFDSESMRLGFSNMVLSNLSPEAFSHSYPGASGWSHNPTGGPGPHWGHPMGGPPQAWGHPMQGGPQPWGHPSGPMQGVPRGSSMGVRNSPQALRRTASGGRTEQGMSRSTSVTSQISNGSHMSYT

| compound | target or system | IC50 |
| --- | --- | --- |
| CN(C)CC(O)COc1ccc(Nc2ncc([N+](=O)[O-])c(Nc3ccccc3O)n2)cc1.O=C(O)C(F)(F)F (stereo not shown) | TAOK1 (Homo sapiens, UniProt Q7L7X3) | 6.1 µM |

---

target or system: FER (Homo sapiens, UniProt P16591)
Sequence (P16591 whole entry): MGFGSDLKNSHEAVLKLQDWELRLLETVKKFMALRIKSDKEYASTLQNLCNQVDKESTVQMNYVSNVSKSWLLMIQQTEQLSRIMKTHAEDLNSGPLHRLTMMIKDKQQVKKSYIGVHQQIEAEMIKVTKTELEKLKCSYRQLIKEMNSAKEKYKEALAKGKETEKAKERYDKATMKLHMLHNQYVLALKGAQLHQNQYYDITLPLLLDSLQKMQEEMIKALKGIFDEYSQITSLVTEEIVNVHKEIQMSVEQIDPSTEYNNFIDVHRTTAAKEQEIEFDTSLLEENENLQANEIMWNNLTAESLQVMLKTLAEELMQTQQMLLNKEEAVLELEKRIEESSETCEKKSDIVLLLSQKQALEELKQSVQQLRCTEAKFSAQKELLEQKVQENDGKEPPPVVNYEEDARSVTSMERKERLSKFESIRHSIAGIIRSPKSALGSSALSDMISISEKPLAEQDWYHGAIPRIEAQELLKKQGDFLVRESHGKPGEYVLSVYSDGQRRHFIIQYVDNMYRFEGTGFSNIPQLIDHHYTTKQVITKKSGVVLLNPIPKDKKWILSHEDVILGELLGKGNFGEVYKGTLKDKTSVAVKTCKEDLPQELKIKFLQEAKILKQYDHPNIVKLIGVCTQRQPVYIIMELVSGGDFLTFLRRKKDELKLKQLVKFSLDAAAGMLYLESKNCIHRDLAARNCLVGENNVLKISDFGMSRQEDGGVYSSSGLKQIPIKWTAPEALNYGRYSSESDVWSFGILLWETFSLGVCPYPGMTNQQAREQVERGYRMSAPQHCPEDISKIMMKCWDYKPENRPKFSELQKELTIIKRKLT

| mol smiles | IC50 |
| --- | --- |
| Cl.NCC1(c2nc(-c3ccc(Cl)c(O)c3)c(-c3ccncc3)[nH]2)CCCCC1 | > 20 µM |

---

target or system: MAP2K2 (Homo sapiens)
Sequence (P36507 whole entry): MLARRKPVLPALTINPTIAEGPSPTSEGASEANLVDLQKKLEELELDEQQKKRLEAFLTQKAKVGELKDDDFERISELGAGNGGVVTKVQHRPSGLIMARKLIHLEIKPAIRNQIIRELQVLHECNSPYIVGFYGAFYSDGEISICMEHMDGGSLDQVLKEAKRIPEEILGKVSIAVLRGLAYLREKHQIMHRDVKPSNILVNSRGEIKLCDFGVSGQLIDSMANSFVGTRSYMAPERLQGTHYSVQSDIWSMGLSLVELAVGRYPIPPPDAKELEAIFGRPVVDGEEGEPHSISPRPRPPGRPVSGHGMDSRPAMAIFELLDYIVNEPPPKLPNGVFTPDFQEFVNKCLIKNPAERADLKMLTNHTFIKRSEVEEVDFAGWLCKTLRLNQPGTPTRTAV
pIC50: −log10 of the molar value.

| mol smiles | pIC50 |
| --- | --- |
| Cc1[nH]c(/C=C2\C(=O)Nc3ccc(S(=O)(=O)Cc4c(Cl)cccc4Cl)cc32)c(C)c1C(=O)N1CCC[C@@H]1CN1CCCC1 | < 4.70 |

---

Each entry below carries its measured IC50, system: WEE1 (Homo sapiens, UniProt P30291).
Sequence (P30291 whole entry): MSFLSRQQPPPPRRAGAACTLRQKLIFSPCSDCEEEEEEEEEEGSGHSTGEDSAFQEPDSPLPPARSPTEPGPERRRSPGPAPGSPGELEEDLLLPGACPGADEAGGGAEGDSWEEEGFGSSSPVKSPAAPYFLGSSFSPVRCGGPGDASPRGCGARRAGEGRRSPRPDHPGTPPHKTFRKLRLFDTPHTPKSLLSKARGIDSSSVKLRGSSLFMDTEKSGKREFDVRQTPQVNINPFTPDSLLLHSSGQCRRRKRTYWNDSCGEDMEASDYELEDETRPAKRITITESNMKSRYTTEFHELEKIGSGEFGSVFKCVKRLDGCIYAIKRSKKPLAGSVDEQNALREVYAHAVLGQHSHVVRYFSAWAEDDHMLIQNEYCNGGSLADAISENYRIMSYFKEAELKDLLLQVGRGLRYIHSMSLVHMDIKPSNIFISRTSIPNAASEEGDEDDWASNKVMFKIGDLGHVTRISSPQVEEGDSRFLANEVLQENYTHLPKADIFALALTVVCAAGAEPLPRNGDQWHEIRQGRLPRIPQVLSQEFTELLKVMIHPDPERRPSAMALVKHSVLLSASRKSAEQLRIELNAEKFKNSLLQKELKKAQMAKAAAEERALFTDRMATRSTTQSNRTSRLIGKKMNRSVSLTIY

| compound | IC50 |
| --- | --- |
| Cl.NCC1(c2nc(-c3ccc(Cl)c(O)c3)c(-c3ccncc3)[nH]2)CCCCC1 [TCMDC-141154] | > 20000 nM |
| CN(C)CC(O)COc1ccc(Nc2ncc([N+](=O)[O-])c(Nc3ccccc3O)n2)cc1.O=C(O)C(F)(F)F (centres unmarked) [TCMDC-141399] | 580 nM |
